Ref: patent US20120178738A1

Reported values of pKi for individual entries
TESTED SYSTEM: human H1 receptors (Homo sapiens)
Sequence (P35367 whole entry): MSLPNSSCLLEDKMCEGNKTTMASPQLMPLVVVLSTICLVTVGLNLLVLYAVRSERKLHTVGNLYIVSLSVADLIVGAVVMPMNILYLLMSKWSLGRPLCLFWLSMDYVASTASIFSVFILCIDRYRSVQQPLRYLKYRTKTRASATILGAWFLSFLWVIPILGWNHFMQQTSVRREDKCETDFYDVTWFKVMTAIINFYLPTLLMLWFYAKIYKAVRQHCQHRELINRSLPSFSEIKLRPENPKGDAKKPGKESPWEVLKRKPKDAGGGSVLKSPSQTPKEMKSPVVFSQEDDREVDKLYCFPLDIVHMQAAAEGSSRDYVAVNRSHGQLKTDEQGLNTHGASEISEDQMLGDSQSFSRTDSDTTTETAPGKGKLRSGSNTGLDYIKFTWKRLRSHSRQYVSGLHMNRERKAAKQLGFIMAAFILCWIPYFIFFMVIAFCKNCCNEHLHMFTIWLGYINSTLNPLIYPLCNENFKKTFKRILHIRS
pKi: −log10 of the molar value.

- COC(=O)C[C@H]1CN(C2=Nc3cc(Cl)ccc3Oc3ccccc32)CCN1: 6.01 to 7.00
- O=C(C[C@H]1CN(C2=Nc3cc(Cl)ccc3Oc3ccccc32)CCN1)NCC(O)C(F)(F)F (some centres unmarked): 7.01 to 8.00
- COC(=O)CC1CN(C2=Nc3cc(C(F)(F)F)ccc3Oc3ccccc32)CCN1 (centres unmarked): 5.01 to 6.00
- C[C@H](O)C[C@H](C)OC(=O)C[C@H]1CN(C2=Nc3cc(Cl)ccc3Oc3ccccc32)CCN1: 7.01 to 8.00
- CN1CCN(C2=Nc3cc(Cl)ccc3Oc3ccccc32)C[C@@H]1CC(=O)OC1CCCC1: 6.01 to 7.00
- CN1CCN(C2=Nc3cc(Cl)ccc3Oc3ccccc32)C[C@@H]1CC(=O)N(CC(F)(F)F)CC(F)(F)F: 6.01 to 7.00
- CN1CCN(C2=Nc3cc(Cl)ccc3Oc3ccccc32)C[C@@H]1CC(=O)NCC(F)(F)C(F)(F)F: 6.01 to 7.00

For the molecule `O=C(C[C@H]1CN(C2=Nc3cc(Cl)ccc3Oc3ccccc32)CCN1)O[C@H]1CN2CCC1CC2` , the measured pKi on human H1 receptors (Homo sapiens) was 5.01 to 6.00

====

Each item that follows carries a reported pKi.
TESTED SYSTEM: human M1 receptors (Homo sapiens, UniProt P11229)
Sequence (P11229 1-460): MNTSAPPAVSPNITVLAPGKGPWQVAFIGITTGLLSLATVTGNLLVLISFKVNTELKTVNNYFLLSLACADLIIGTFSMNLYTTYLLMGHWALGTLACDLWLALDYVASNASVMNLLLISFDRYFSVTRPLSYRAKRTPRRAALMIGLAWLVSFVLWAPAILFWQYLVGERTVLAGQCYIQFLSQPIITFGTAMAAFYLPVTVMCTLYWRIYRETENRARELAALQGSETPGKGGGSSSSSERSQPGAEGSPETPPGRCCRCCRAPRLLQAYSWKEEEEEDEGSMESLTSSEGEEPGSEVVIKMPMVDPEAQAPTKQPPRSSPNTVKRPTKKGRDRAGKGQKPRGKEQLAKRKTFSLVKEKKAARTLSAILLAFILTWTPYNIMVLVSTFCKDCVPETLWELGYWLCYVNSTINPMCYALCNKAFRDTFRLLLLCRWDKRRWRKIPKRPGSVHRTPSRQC
pKi: −log10 of the molar value.

These solved cases illustrate the format of a correct answer.
• O=C(C[C@H]1CN(C2=Nc3cc(Cl)ccc3Oc3ccccc32)CCN1)NC[C@@H]1CCCO1 [FR] = < 5.00
• COC(=O)c1ccc(OC[C@H]2CN(C3=Nc4ccccc4Oc4ccc(Cl)cc43)CCN2)cc1 [D] = < 5.00
• CC[C@H](C)OC(=O)C[C@H]1CN(C2=Nc3cc(Cl)ccc3Oc3ccccc32)CCN1 [EP] = 5.01 to 5.30
• O=C(O)CC1CN(C2=Nc3cc(Cl)ccc3Oc3ccccc32)CCN1 (stereo not drawn) [Compound E] = < 5.00
• CCOC(=O)c1ccc(CCC2CN(C3=Nc4cc(Cl)ccc4Oc4ccccc43)CCN2)cc1 (stereo not drawn) [Compound F] = 5.61 to 5.90

Quick note, pKi for O=C(C[C@H]1CN(C2=Nc3cc(Cl)ccc3Oc3ccccc32)CCN1)NCCOCCO [FN] landed at < 5.00

Reported pKi ( CCCN(CCO)C(=O)C[C@H]1CN(C2=Nc3cc(Cl)ccc3Oc3ccccc32)CCN1 [EZ] ) = < 5.00

The compound listed as CN1CCN(C2=Nc3cc(Cl)ccc3Oc3ccccc32)C[C@@H]1CC(=O)NC(CF)CF [EV] shows pKi equal to 5.01 to 5.30

Record summary for COCCNC(=O)C[C@H]1CN(C2=Nc3cc(Cl)ccc3Oc3ccccc32)CCN1 [FC] : reported pKi = < 5.00
